Source: ChEMBL document CHEMBL4004818

System: RAW264.7
Assay: Antiinflammatory activity in mouse RAW264.7 cells assessed as inhibition of LPS-induced nitric oxide production preincubated for 2 hrs followed by LPS stimulation measured after 18 hrs by Griess assay
Format: functional, cell-based
ATTRIBUTE_MEASURED: IC50 (µM)
Express your answer in µM, writing the number without its unit.

Endpoint output: IC50 of Cc1cc(O)cc(O)c1C(=O)O[C@@H]1CC2=C(CO[C@](O)(CCCO)C2)C(=O)[C@]1(C)O (relative stereo) . Value?
25.5

What does the record list as IC50 for Cc1cc(O)cc(O)c1C(=O)O[C@@]1(C)C(=O)C2=C(C=C(/C=C/CO)OC2)C[C@H]1O ?
9.2

Give the measured IC50 of Cc1cc(O)cc(O)c1C(=O)O[C@@H]1CC2=C(COC(CCC(=O)O)=C2)C(=O)[C@]1(C)O (relative stereo) .
39.6

Turning now to a further record.
Bench note: what IC50 did COC(=O)[C@@H](N)CCCNC(=N)N[N+](=O)[O-] [L-NAME] show?
30.6
